Data credit: patent US20250059187A1

# system.name: K-Ras G12D (Homo sapiens, UniProt P01116, G12D)
# Construct: human K-Ras (G12D, aa 1-169); 6xHis tag + TEV cleavage site (N, cleaved yes); made in house; host or cells: E. coli BL21(DE3)
# assay.procedure: Covalent modification of test protein after incubation with compound
# Assay type: binding
# experimental.setup: 24-h incubation with 100 μM compound at 23° C. at pH 7.5
measured.parameter: % covalent modification of K-Ras G12D (%)

compound: O=C1CC(C(=O)N2[C@@H]3CC[C@H]2CN(c2nc(OCC45CCCN4CCC5)nc4c(F)c(-c5cccc6cccc(Cl)c56)ncc24)C3)O1 (some centres unmarked)
system.name: K-Ras G12D (Homo sapiens, UniProt P01116, G12D)
output.unit: %
result.value: 100
--
compound: O=C1O[C@@H]2CCN(c3ncnc4c(F)c(-c5ccccc5F)c(Cl)cc34)C[C@H]12
system.name: K-Ras G12D (Homo sapiens, UniProt P01116, G12D)
output.unit: %
result.value: 0
--
compound: CC1(c2cc(NCC(=O)N[C@H]3COC3=O)c(O)cc2Cl)CC1
system.name: K-Ras G12D (Homo sapiens, UniProt P01116, G12D)
output.unit: %
result.value: 0
--
compound: O=C1OCC12CCN(c1nc(OCC34CCCN3CCC4)nc3c1CCN(c1cccc4cccc(Cl)c14)C3)CC2
system.name: K-Ras G12D (Homo sapiens, UniProt P01116, G12D)
output.unit: %
result.value: 87.8
--
compound: C#Cc1c(F)ccc2cc(O)cc(-c3ncc4c(N5C[C@H]6CC[C@@H](C5)N6C(=O)[C@@H]5OC(=O)[C@H]5C(C)C)nc(OC[C@@]56CCCN5C[C@H](F)C6)nc4c3F)c12
system.name: K-Ras G12D (Homo sapiens, UniProt P01116, G12D)
output.unit: %
result.value: 100
--
compound: CN1CCC[C@@H]1COc1nc2c(c(N3CCC4(CC3)CNC4=O)n1)CCN(c1cccc3cccc(Cl)c13)C2
system.name: K-Ras G12D (Homo sapiens, UniProt P01116, G12D)
output.unit: %
result.value: 0
--
compound: CN1CCC[C@@H]1COc1nc2c(c(N3CCC4(CC3)CC(=O)O4)n1)CCN(c1cccc3cccc(Cl)c13)C2
system.name: K-Ras G12D (Homo sapiens, UniProt P01116, G12D)
output.unit: %
result.value: 0
--
compound: O=C1O[C@H]2CN(c3nc(OCC45CCCN4CCC5)nc4c3CCN(c3cccc5cccc(Cl)c35)C4)CC[C@@H]12
system.name: K-Ras G12D (Homo sapiens, UniProt P01116, G12D)
output.unit: %
result.value: 0
--
compound: C#Cc1c(F)ccc2cc(O)cc(-c3ncc4c(N5C[C@H]6CC[C@@H](C5)N6C(=O)[C@@H]5OC(=O)C5(C)C)nc(OC[C@@]56CCCN5C[C@H](F)C6)nc4c3F)c12 [(R)-7]
system.name: K-Ras G12D (Homo sapiens, UniProt P01116, G12D)
output.unit: %
result.value: 100
--
compound: C#Cc1cccc2cccc(-c3ncc4c(N5C[C@H]6CC[C@@H](C5)N6C(=O)C5CC(=O)O5)nc(OCC56CCCN5CCC6)nc4c3F)c12 (mixture of isomers) [(RS)-1]
system.name: K-Ras G12D (Homo sapiens, UniProt P01116, G12D)
output.unit: %
result.value: 100
--
compound: O=C1C[C@H](C(=O)N2[C@@H]3CC[C@H]2CN(c2nc(OCC45CCCN4CCC5)nc4c(F)c(-c5cccc6cccc(Cl)c56)ncc24)C3)O1 [(R)-2]
system.name: K-Ras G12D (Homo sapiens, UniProt P01116, G12D)
output.unit: %
result.value: 100
--
compound: CN1CCC[C@H]1COc1nc2c(c(N3CCC4C(=O)OC4C3)n1)CCN(c1cccc3cccc(Cl)c13)C2 (some centres unmarked)
system.name: K-Ras G12D (Homo sapiens, UniProt P01116, G12D)
output.unit: %
result.value: 7.0
--
compound: CN1CCC[C@@H]1COc1nc2c(c(N3CC[C@H]4C(=O)O[C@H]4C3)n1)CCN(c1cccc3cccc(Cl)c13)C2
system.name: K-Ras G12D (Homo sapiens, UniProt P01116, G12D)
output.unit: %
result.value: 6.9
--
compound: Cc1ccc2[nH]ncc2c1-c1cc2ncnc(N3CC(C(=O)N[C@H]4COC4=O)C3)c2cc1Cl
system.name: K-Ras G12D (Homo sapiens, UniProt P01116, G12D)
output.unit: %
result.value: 23.4
--
compound: CC1(c2cc(NCC(=O)N3CC[C@H]4OC(=O)[C@H]4C3)c(O)cc2Cl)CC1
system.name: K-Ras G12D (Homo sapiens, UniProt P01116, G12D)
output.unit: %
result.value: 2.4
--
compound: CC1(c2cc(NCC(=O)N3CC[C@H]4C(=O)O[C@H]4C3)c(O)cc2Cl)CC1
system.name: K-Ras G12D (Homo sapiens, UniProt P01116, G12D)
output.unit: %
result.value: 2.4
--
compound: CC1(c2cc(NCC(=O)N3CC[C@@]4(C)C(=O)O[C@H]4C3)c(O)cc2Cl)CC1
system.name: K-Ras G12D (Homo sapiens, UniProt P01116, G12D)
output.unit: %
result.value: 0
--
compound: C[C@@H]1C(=O)O[C@H]1C(=O)N1[C@@H]2CC[C@H]1CN(c1nc(OCC34CCCN3CCC4)nc3c(F)c(-c4cccc5cccc(Cl)c45)ncc13)C2
system.name: K-Ras G12D (Homo sapiens, UniProt P01116, G12D)
output.unit: %
result.value: 100
--
compound: CC1(c2cc(NCC(=O)N3CC[C@H]4OC(=O)[C@@]4(C)C3)c(O)cc2Cl)CC1
system.name: K-Ras G12D (Homo sapiens, UniProt P01116, G12D)
output.unit: %
result.value: 0
--
compound: CC1(c2cc(NCC(=O)N[C@@H]3COC3=O)c(O)cc2Cl)CC1
system.name: K-Ras G12D (Homo sapiens, UniProt P01116, G12D)
output.unit: %
result.value: 0
--
compound: CN1CCC[C@@H]1COc1nc2c(c(N3CC[C@@]4(C)C(=O)O[C@H]4C3)n1)CCN(c1cccc3cccc(Cl)c13)C2
system.name: K-Ras G12D (Homo sapiens, UniProt P01116, G12D)
output.unit: %
result.value: 0
--
compound: CN1CCC[C@@H]1COc1nc2c(c(N3C[C@@H]4OC(=O)[C@@H]4C3)n1)CCN(c1cccc3cccc(Cl)c13)C2
system.name: K-Ras G12D (Homo sapiens, UniProt P01116, G12D)
output.unit: %
result.value: 5.0
--
compound: C#Cc1cccc2cccc(-c3ncc4c(N5C[C@H]6CC[C@@H](C5)N6C(=O)[C@@H]5OC(=O)[C@H]5C(C)C)nc(OCC56CCCN5CCC6)nc4c3F)c12
system.name: K-Ras G12D (Homo sapiens, UniProt P01116, G12D)
output.unit: %
result.value: 100
--
compound: CN1CCC[C@@H]1COc1nc2c(c(N3CCN4C(=O)C[C@H]4C3)n1)CCN(c1cccc3cccc(Cl)c13)C2
system.name: K-Ras G12D (Homo sapiens, UniProt P01116, G12D)
output.unit: %
result.value: 0
--
compound: Cc1ccc2[nH]ncc2c1-c1cc2ncnc(N3CC(C(=O)N[C@@H]4COC4=O)C3)c2cc1Cl
system.name: K-Ras G12D (Homo sapiens, UniProt P01116, G12D)
output.unit: %
result.value: 17.7
--
compound: CN1CCC[C@@H]1COc1nc2c(c(N3CC[C@H]4OC(=O)[C@@]4(C)C3)n1)CCN(c1cccc3cccc(Cl)c13)C2
system.name: K-Ras G12D (Homo sapiens, UniProt P01116, G12D)
output.unit: %
result.value: 0

====

Catalogue of half-life readings, one per entry.
# assay.procedure: Stability of substituted β-lactones in PBS 7.4 at 23° C.
# Format: physicochemical
# experimental.setup: PBS, pH 7.4, read-out: half-life (hydrolysis) (converted)
measured.parameter: half-life

input.smiles: O=C1C[C@H](C(=O)N2[C@@H]3CC[C@H]2CN(c2nc(OCC45CCCN4CCC5)nc4c(F)c(-c5cccc6cccc(Cl)c56)ncc24)C3)O1
result.value: 1.7 h

input.smiles: C[C@@H]1C(=O)O[C@H]1C(=O)N1[C@@H]2CC[C@H]1CN(c1nc(OCC34CCCN3CCC4)nc3c(F)c(-c4cccc5cccc(Cl)c45)ncc13)C2
result.value: 2.5 h

====

# system.name: K-Ras G12E (Homo sapiens, UniProt P01116, G12E)
# Construct: human K-Ras (G12E, aa 1-169); 6xHis tag + TEV cleavage site (N, cleaved yes); made in house; host or cells: E. coli BL21(DE3)
# assay.procedure: Covalent modification of test protein after incubation with compound
# Assay type: binding
# experimental.setup: 24-h incubation with 100 μM compound at 23° C. at pH 7.5
Catalogue of % covalent modification of K-Ras G12E readings, one per entry.

molecule: O=C1OCC12CCN(c1nc(OCC34CCCN3CCC4)nc3c1CCN(c1cccc4cccc(Cl)c14)C3)CC2 [Compound 13-018]
% covalent modification of K-Ras G12E: 75.1%
--
molecule: CN1CCC[C@@H]1COc1nc2c(c(N3C[C@@H]4OC(=O)[C@@H]4C3)n1)CCN(c1cccc3cccc(Cl)c13)C2 [Compound 12-058]
% covalent modification of K-Ras G12E: 7.0%
--
molecule: Cc1ccc2[nH]ncc2c1-c1cc2ncnc(N3CCC(C(=O)N[C@@H]4COC4=O)CC3)c2cc1Cl [Compound 04-023]
% covalent modification of K-Ras G12E: 2.1%
--
molecule: O=C1O[C@H]2CN(c3nc(OCC45CCCN4CCC5)nc4c3CCN(c3cccc5cccc(Cl)c35)C4)CC[C@@H]12 [4′]
% covalent modification of K-Ras G12E: 0%
